Recorded pEC50 values for a group of substances are listed next.
- subject of test: hGIPR (Homo sapiens, UniProt P48546)
- Sequence (P48546 22-466): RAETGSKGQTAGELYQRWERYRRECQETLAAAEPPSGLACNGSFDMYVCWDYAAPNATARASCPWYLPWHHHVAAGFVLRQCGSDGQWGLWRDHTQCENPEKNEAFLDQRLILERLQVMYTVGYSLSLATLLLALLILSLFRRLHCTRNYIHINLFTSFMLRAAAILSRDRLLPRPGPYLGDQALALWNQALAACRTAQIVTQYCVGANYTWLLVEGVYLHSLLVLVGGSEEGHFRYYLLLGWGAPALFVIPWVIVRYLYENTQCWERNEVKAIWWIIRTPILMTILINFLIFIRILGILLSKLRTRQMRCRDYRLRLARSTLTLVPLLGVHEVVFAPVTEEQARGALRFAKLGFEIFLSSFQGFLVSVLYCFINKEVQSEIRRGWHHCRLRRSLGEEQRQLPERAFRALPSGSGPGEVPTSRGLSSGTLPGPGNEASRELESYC
- measurement description: Functional cAMP activation in the presence of 0.1% casein (no HSA);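 note: intracellular cAMP rise after 30 min at 37 °C read by HTRF against a standard curve, scaled between buffer alone (0%) and top control ligand concentration (100%), four-parameter fit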
- Type: cell-based
- condition notes: in the presence of 0.1% casein (no HSA); geometric mean; read-out: Relative cAMP EC50, hGIPR
pEC50: −log10 of the molar value. Starred links: 1 amine or outer side, 2 acyl side, 3 side chain; linkers in the order of their positions; H or OH if unused. Non-standard residues stand in square brackets, D forms with d. Groups on a side chain read outwards from the residue. No end group written: not given here. *: point of attachment. C20 diacid = O=C(O)CCCCCCCCCCCCCCCCCCC(=O)*; C18 diacid = O=C(O)CCCCCCCCCCCCCCCCC(=O)*; αMePhe(2-F) = C[C@](N)(Cc1ccccc1F)C(=O)O; γGlu = O=C(O)[C@H](CCC(=O)[*:2])N[*:1]; αMe4Pal = C[C@](N)(Cc1ccncc1)C(=O)O; 4Pal = N[C@@H](Cc1ccncc1)C(=O)O; αMeL = CC(C)C[C@](C)(N)C(=O)O; Orn = NCCC[C@H](N)C(=O)O; AEEA = NCCOCCOCC(=O)O; Aib = CC(C)(N)C(=O)O
property label: pEC50

>>> reported_measurement("Y[Aib]QGTFTSD[4Pal]SK[αMeL]LDKK([AEEA-γGlu-C20 diacid])AQ[Aib]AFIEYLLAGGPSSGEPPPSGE-NH2 [Example 28]")
9.59
>>> reported_measurement("H-Y[Aib]QGT[αMePhe(2-F)]TSDYSILLDKIAQK([AEEA-γGlu-C20 diacid])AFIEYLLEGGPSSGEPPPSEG-NH2 [Example 293]")
10.23
>>> reported_measurement("H-Y[Aib]QGTFTSDFS[Orn][αMeL]LDKK([AEEA-γGlu-C18 diacid])AQ[Aib]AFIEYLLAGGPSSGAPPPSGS[AEEA]-NH2 [Example 89]")
9.78
>>> reported_measurement("H-Y[Aib]QGTFTSD[4Pal]SQ[αMeL]LDKK([γGlu-γGlu-C18 diacid])AQ[αMe4Pal]AFIE[αMe4Pal]LIE[Aib]GPSSGEPPPSGEEE-NH2 [Example 1124]")
9.73
>>> reported_measurement("Y[Aib]QGTFTSD[4Pal]SR[αMeL]LDKK([γGlu-γGlu-C18 diacid])AQ[αMe4Pal]AFIE[αMe4Pal]LIEGGPSSGAPPPSGSEE-NH2 [Example 959]")
9.66
>>> reported_measurement("H-Y[Aib]QGTFTSD[4Pal]S[Orn][αMeL]LDKK([γGlu-γGlu-C18 diacid])AQ[αMe4Pal]AFIEYLIAGGPSSGEPPPSGTEE-NH2 [Example 981]")
9.61
